Values from patent US10670605B2

- SYSTEM: cysteines in MDA-MB-231 and Ramos cells (Homo sapiens, UniProt P42765)
- Sequence (P42765 1-397): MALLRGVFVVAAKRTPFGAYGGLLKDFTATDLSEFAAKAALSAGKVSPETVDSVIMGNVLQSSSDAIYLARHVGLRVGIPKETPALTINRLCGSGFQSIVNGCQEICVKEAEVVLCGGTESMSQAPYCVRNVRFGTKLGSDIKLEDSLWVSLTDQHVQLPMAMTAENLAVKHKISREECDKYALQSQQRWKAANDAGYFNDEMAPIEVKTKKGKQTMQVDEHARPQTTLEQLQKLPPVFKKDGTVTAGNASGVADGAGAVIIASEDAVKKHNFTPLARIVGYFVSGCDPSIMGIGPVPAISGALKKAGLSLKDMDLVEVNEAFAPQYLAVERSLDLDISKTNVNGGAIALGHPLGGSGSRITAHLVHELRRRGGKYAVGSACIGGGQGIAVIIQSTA
- PROTOCOL: Competitive isoTOP-ABPP in situ (fragment-treated cells)
- Type: cell-based
- RECORDED_CONDITIONS: 200 μM, insitu, ramos
VALUE_KIND: isoTOP-ABPP ratio P42765_C92

Problem: Fetch value of isoTOP-ABPP ratio P42765_C92 on cysteines in MDA-MB-231 and Ramos cells (Homo sapiens, UniProt P42765) for C=CC(=O)N(Cc1cccnc1)c1cc(C(F)(F)F)cc(C(F)(F)F)c1 [compound 31] .
Result: 1.2

Problem: Would you please give the reported isoTOP-ABPP ratio P42765_C92 of O=C(CCl)N1CCN(S(=O)(=O)c2ccccc2F)CC1 [compound 10] with cysteines in MDA-MB-231 and Ramos cells (Homo sapiens, UniProt P42765)?
Result: 1.1

Problem: # return isoTOP-ABPP ratio P42765_C92 for O=C(CCl)NCCc1c[nH]c2ccccc12 [compound 13] , test system: cysteines in MDA-MB-231 and Ramos cells (Homo sapiens, UniProt P42765)
Result: 2.2

Problem: System cysteines in MDA-MB-231 and Ramos cells (Homo sapiens, UniProt P42765). Read-out isoTOP-ABPP ratio P42765_C92. Item O=C(CCl)N1CCN(CC(=O)N2CCOCC2)CC1 [compound 29] . Report value.
Result: 0.9

* * *

- SYSTEM: cysteines in MDA-MB-231 and Ramos cells (Homo sapiens)
- Sequence (Q9NQC3 1-1192): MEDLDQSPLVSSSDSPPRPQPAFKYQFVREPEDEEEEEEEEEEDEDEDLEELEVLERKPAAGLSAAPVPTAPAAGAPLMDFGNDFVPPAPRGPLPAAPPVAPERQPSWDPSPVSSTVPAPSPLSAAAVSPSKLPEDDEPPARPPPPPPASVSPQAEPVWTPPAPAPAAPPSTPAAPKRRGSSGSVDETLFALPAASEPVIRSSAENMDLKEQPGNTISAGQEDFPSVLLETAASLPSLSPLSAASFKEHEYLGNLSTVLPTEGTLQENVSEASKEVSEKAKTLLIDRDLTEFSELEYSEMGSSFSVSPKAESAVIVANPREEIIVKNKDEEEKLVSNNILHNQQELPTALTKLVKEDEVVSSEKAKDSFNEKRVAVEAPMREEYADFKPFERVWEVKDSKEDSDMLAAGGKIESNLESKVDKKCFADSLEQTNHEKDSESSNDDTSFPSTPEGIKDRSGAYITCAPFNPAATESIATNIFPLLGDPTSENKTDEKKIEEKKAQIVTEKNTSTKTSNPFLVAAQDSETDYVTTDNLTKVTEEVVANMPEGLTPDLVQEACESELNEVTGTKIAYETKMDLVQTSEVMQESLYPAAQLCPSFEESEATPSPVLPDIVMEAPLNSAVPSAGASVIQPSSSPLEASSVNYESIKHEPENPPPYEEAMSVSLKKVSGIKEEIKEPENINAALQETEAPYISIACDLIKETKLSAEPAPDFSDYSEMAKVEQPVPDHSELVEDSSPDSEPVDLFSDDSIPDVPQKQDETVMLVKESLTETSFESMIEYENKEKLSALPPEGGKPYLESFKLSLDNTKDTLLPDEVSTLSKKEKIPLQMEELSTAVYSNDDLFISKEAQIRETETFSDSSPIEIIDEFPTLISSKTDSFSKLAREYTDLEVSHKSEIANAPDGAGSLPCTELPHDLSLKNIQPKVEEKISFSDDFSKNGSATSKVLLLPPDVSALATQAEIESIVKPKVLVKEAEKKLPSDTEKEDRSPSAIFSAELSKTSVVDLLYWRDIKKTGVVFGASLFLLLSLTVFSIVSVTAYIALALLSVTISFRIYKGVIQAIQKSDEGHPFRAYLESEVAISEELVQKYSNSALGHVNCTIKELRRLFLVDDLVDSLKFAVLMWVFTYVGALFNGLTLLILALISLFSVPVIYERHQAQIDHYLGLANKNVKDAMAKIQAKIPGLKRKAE
- PROTOCOL: Competitive isoTOP-ABPP in situ (fragment-treated cells)
- Type: cell-based
- RECORDED_CONDITIONS: 200 μM, insitu, 231
VALUE_KIND: isoTOP-ABPP ratio Q9NQC3_C1101
Just the number, please, no unit after it.

Check out these entries, answers already filled in.
INSERT INTO measurements (smiles_str, numeric_result) VALUES
  ('O=C(CCl)NC12CC3CC(CC(C3)C1)C2', 2.1),
  ('O=C(CCl)NC(=O)NC12CC3CC(CC(C3)C1)C2', 20.0),
  ('O=C(CCl)N1CCN(S(=O)(=O)c2ccccc2F)CC1', 20.0),
  ('C=CC(=O)Nc1cc(F)c(N2CCN(C(=O)OC(C)(C)C)CC2)c(F)c1', 20.0);

// next entry
Problem: Give the value of isoTOP-ABPP ratio Q9NQC3_C1101 reported for the following: `O=C(CCl)Nc1cccc2ncccc12`
Result: 1.2

* * *

Known isoTOP-ABPP ratio (reactivity profile), Q96GG9_C115 of a selection of compounds
- SYSTEM: DCUN1D1 C115 (Q96GG9) (Homo sapiens)
- Sequence (Q96GG9 whole entry): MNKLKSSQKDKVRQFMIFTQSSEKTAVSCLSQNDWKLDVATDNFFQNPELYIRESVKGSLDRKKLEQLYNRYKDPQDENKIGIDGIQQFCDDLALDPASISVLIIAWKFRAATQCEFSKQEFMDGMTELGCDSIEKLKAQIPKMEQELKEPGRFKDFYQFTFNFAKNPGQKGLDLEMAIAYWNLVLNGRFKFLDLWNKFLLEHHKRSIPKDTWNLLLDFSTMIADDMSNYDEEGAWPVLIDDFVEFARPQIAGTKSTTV
- PROTOCOL: Competitive isoTOP-ABPP, cell lysates
- Format: binding
- RECORDED_CONDITIONS: 500 μm in-vitro ramos_231
Number only, please.

INSERT INTO results (smiles_str, numeric_result) VALUES
  ('O=C(CCl)N1CCOCC1', 1.0),
  ('CC(C)CCOCCNC(=O)CCl', 1.1),
  ('O=C(CCl)NC12CC3CC(CC(C3)C1)C2', 1.0);

Please look at the following compound next.
Problem: Dear colleague, please send me the reported isoTOP-ABPP ratio (reactivity profile), Q96GG9_C115 for `O=C(CCl)N1CCC(C(O)(c2ccccc2)c2ccccc2)CC1` when you can.
Result: 1.2

* * *

- SYSTEM: cysteines in MDA-MB-231 and Ramos cells (Homo sapiens)
- Sequence (Q96S55 1-665): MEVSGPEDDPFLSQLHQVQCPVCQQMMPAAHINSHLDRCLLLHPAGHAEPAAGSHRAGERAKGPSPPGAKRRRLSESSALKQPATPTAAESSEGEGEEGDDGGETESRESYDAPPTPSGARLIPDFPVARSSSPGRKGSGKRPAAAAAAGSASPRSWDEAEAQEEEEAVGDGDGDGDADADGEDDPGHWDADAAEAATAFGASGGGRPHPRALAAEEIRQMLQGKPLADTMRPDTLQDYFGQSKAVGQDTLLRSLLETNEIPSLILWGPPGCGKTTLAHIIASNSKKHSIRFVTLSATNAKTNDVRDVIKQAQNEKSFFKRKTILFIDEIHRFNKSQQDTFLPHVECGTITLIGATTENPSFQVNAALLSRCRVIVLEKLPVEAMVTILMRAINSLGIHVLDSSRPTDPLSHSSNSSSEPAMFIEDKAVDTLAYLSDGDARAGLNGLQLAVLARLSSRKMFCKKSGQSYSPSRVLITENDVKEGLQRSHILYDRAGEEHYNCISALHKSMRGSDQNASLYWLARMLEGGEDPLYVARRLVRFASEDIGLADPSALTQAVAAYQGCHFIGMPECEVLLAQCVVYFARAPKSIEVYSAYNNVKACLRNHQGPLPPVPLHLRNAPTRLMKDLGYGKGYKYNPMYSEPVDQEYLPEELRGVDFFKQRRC
- PROTOCOL: Competitive isoTOP-ABPP in situ (fragment-treated cells)
- Format: cell-based
- RECORDED_CONDITIONS: 200 μM, insitu, 231
VALUE_KIND: isoTOP-ABPP ratio Q96S55_C272
Please reply with the number alone, leaving off any unit.

INSERT INTO measurements (compound, system, numeric_result) VALUES
  ('O=C(CCl)NC(=O)NC12CC3CC(CC(C3)C1)C2 [compound 12]', 'cysteines in MDA-MB-231 and Ramos cells (Homo sapiens)', 2.4),
  ('O=C(CCl)NC12CC3CC(CC(C3)C1)C2 [compound 21]', 'cysteines in MDA-MB-231 and Ramos cells (Homo sapiens)', 1.3),
  ('COc1ccccc1OCCNC(=O)CCl [compound 28]', 'cysteines in MDA-MB-231 and Ramos cells (Homo sapiens)', 0.5),
  ('O=C(CCl)NCCc1c[nH]c2ccccc12 [compound 13]', 'cysteines in MDA-MB-231 and Ramos cells (Homo sapiens)', 0.7);

// moving on: another record for isoTOP-ABPP ratio Q96S55_C272
Problem: Determine its reported isoTOP-ABPP ratio Q96S55_C272: CC1CCc2ccccc2N1C(=O)CCl (centres unmarked) [compound 45]
Result: 2.5
